Where these numbers come from: patent US8394825B2

Catalogue of compounds with associated melting point

Answered cases to consult:
compound	melting point
COc1ccc(CN2CCc3cc(O)ccc3C2)cc1 [B17]	158 to 160 °C
COc1cc2c(cc1OCc1ccccc1)CCN(C(=O)c1cc(OC)c(OC)c(OC)c1)C2 [compound 111]	63 to 64 °C
COc1ccc(CN2C(=O)CCc3cc(O)c(OC)cc32)cc1 [compound 292]	168 to 169 °C
CCOC1CN(Cc2ccc(OC)cc2)Cc2cc(OC)c(O)cc21 (centres unmarked) [F36]	154 to 157 °C

Next compound, melting point to be filled in.
Task: Requested field: melting point. Item: COc1cccc(CN2Cc3cc(OC)c(OCc4ccccc4)cc3C(OC)C2)c1 (centres unmarked) [F20]
Output: 96 to 97 °C
